Reference source: patent US20250101041A1

- EXPERIMENTAL_SYSTEM: human mAChR M4 (Homo sapiens)
- Sequence (P08173 whole entry): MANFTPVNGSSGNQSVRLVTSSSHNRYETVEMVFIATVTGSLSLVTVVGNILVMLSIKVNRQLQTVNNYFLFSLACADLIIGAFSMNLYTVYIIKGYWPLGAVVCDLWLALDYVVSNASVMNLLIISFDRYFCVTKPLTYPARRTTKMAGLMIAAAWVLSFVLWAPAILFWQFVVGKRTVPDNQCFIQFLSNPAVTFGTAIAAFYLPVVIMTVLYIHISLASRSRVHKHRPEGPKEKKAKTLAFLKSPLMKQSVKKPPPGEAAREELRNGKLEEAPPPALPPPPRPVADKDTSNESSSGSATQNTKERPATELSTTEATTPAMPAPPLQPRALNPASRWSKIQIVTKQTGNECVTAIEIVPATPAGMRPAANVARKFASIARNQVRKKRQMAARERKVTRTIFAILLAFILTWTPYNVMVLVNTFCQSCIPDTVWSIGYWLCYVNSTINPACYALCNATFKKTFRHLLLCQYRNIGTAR
- PROTOCOL_NOTES: mAChR M4 cell-based functional assay: calcium mobilization (Fluo-4, FDSS), potentiation of EC20 acetylcholine response in hM4-Gqi5 CHO-K1 cells
- TEST_CONDITIONS: potentiation of EC20 acetylcholine response, calcium mobilization, human M4
# if measured EC50 < 400 nM: yes (1)  # else: no (0)

Recorded results for 5 molecules are shown here.
MOLECULE: Cc1c(N2CCc3ncc(-c4cnn(-c5ccccc5F)c4)cc3C2)nn2c(=O)ccnc2c1C [Compound 1-193]
EXPERIMENTAL_SYSTEM: human mAChR M4 (Homo sapiens)
ASSIGNED_CLASS: no (0)

MOLECULE: Cc1c(N2CCc3ncc(N4C(=O)Cc5ncccc54)cc3C2)nn2c(=O)ccnc2c1C [Compound 2-149]
EXPERIMENTAL_SYSTEM: human mAChR M4 (Homo sapiens)
ASSIGNED_CLASS: no (0)

MOLECULE: Cc1cc2nccc(=O)n2nc1N1CCc2ncc(N3CCOC(c4ccncc4)C3)cc2C1 (centres unmarked) [Compound 2-93]
EXPERIMENTAL_SYSTEM: human mAChR M4 (Homo sapiens)
ASSIGNED_CLASS: no (0)

MOLECULE: Cc1cc2nccc(=O)n2nc1N1CCc2ncc(Nc3ccccc3)cc2C1 [Compound 2-60]
EXPERIMENTAL_SYSTEM: human mAChR M4 (Homo sapiens)
ASSIGNED_CLASS: yes (1)

MOLECULE: Cc1cc(=O)n2nc(N3CCc4ncc(-c5ccncc5)cc4C3)c(C)c(C)c2n1 [Compound 1-244]
EXPERIMENTAL_SYSTEM: human mAChR M4 (Homo sapiens)
ASSIGNED_CLASS: yes (1)

Please turn your attention to the following entry.
query: Please let me know if Cc1c(N2CCc3ncc(-c4cccs4)cc3C2)nn2c(=O)cc(C(F)F)nc2c1C [Compound 1-312] shows EC50 below 400 nM.
result: yes (1)
